Read-out: Vascular cell adhesion molecule 1 (VCAM1), VCAM1 (gene 7412)
Assay: BSK_hDFCGF_VCAM1: BioMAP Diversity Plus: hDFCGF Assay for Vascular cell adhesion molecule 1 (VCAM1) Biomarker Activity (AID 2283065)
Settings: primary human foreskin fibroblasts; actives raise or lower the signal
Procedure: BSK_hDFCGF is a cell-based, multiplexed-readout assay that uses foreskin fibroblast, a human skin primary cell, with measurements taken at 24 hours after chemical dosing in a 96-well plate.BSK_hDFCGF_VCAM1 is an assay component measured in the BSK_hDFCGF assay. It measures VCAM-1 antibody related to regulation of gene expression using ELISA technology.Data from the assay component BSK_hDFCGF_VCAM1 was analyzed into 1 assay endpoint. […]
Calls of active or inactive are those of the source. Rule for the calls: active = hit-call score of the fitted dose curve at least 0.9, where 1 is the maximum; inactive = score below 0.9.
Tick one outcome: 1 = active, -1 = inactive

The following compounds have reported results that may help.
- compound: "CCCCCCCCCCCCOS(=O)(=O)O"
  label.class: 1
- compound: "CCCCCc1ccc(O)cc1"
  label.class: 1
- compound: "O=C1NS(=O)(=O)c2ccccc21"
  label.class: -1
- compound: "C=CC(=C)CC/C=C(\\C)CCC=C(C)C"
  label.class: -1
- compound: "O=C(O)CCC(F)(F)C(F)(F)C(F)(F)C(F)(F)C(F)(F)C(F)(F)F"
  label.class: -1

Answer briefly: the call reported for "CN(C)CCOC(c1ccccc1)c1ccccc1" in this assay.
-1

Per the records of this test, what outcome belongs to "CC[N+](CC)(CC)Cc1ccccc1" ?
-1

Assay result, entry "Cc1ccc(N=Nc2c(O)ccc3ccccc23)c(C)c1" — outcome?
1

Kindly provide the recorded test outcome for the following compound: "O=C(CCCN1CCC(O)(c2ccc(Cl)cc2)CC1)c1ccc(F)cc1"
-1

I'd appreciate the recorded outcome for C=CC(C)(CCC=C(C)C)OC(C)=O (stereo not drawn) from this test.
-1

Give the logged outcome of this assay for the following compound: CCC(C)c1ccccc1O (stereo not drawn)
-1

* * *

read-out: MYC, MYC (gene 4609); experiment: LTEA_HepaRG_MYC: Life Technologies and Expression Analysis (LTEA) Assay for MYC using HepaRG (AID 2283518); settings: mRNA level, 48 h; actives raise or lower the signal
Calls of active or inactive are those of the source. The calls were made as follows: active = hit-call score of the fitted dose curve at least 0.9, where 1 is the maximum; inactive = score below 0.9.
Give one outcome, nothing more. List: active, inactive

Answered examples (3):
- molecule: "O=C(CCCN1CCC(O)(c2ccc(Cl)cc2)CC1)c1ccc(F)cc1"
  label.class: "active"
- molecule: "O=C1NS(=O)(=O)c2ccccc21"
  label.class: "inactive"
- molecule: "CCCCCCCCCCCCCCC"
  label.class: "inactive"

Hi, do you know how "Cc1[nH]nc2c1N=C(c1ccccc1Cl)c1cc([N+](=O)[O-])ccc1N2" came out in this test?
active

Look up the recorded call for CCCCC(CC)C(=O)O (configuration not stated) in this test.
inactive

Identify the outcome logged in this assay for the molecule shown: "O=C(c1ccccc1)c1ccccc1"
inactive

Which outcome did this test record for the molecule "CN(C)CCOC(c1ccccc1)c1ccccc1" ?
inactive

* * *

read-out: Pyruvate Dehydrogenase Kinase 4 (PDK4), PDK4 (gene 5166); experiment: LTEA_HepaRG_PDK4: Life Technologies and Expression Analysis (LTEA) Assay for Pyruvate Dehydrogenase Kinase 4 (PDK4) using HepaRG (AID 2283525); details: mRNA level, 48 h; actives raise or lower the signal
The source made the active and inactive calls. Rule for the calls: active = hit-call score of the fitted dose curve at least 0.9, where 1 is the maximum; inactive = score below 0.9.
# output must be one of Y (active), N (inactive)

Please review the entries below; each comes with its answer.
- compound: "O=C1NS(=O)(=O)c2ccccc21"
  label.class: "N"
- compound: "CS(=O)(=O)c1ccc([C@@H](CC2CCCC2)C(=O)Nc2cnccn2)cc1Cl"
  label.class: "N"
- compound: "CN(Cc1cnc2nc(N)nc(N)c2n1)c1ccc(C(=O)N[C@@H](CCC(=O)O)C(=O)O)cc1"
  label.class: "Y"
- compound: "O=C(CCCN1CCC(O)(c2ccc(Cl)cc2)CC1)c1ccc(F)cc1"
  label.class: "Y"
- compound: "CN(C)CCOC(c1ccccc1)c1ccccc1"
  label.class: "N"

Please indicate how the test categorized CCCCC(CC)C(=O)O (stereo unspecified) .
N

Please share the test call associated with "CCCCCCCCCCCCCCC" .
N

Which outcome was assigned to "CC(=O)Nc1ccc(O)cc1" in this test?
N

Which outcome was assigned to "CCCCc1oc2ccccc2c1C(=O)c1cc(I)c(OCCN(CC)CC)c(I)c1" in this test?
Y

Per the records of this test, what outcome belongs to "O=C(c1ccccc1)c1ccccc1" ?
N

Recorded test call requested for "Cc1[nH]nc2c1N=C(c1ccccc1Cl)c1cc([N+](=O)[O-])ccc1N2"
Y

* * *

assay: ATG_AP_1_CIS: Attagene CIS-FACTORIAL HepG2 Assay for human Activator Protein 1 (AP-1) (AID 2282931); conditions: HepG2 Attagene cis-factorial AP-1 reporter mRNA; actives raise or lower the signal
Calls of active or inactive are those of the source. The calls were made as follows: active = hit-call score of the fitted dose curve at least 0.9, where 1 is the maximum; inactive = score below 0.9.
Allowed answers: 1 (active), 0 (inactive)

Answered examples (5):
- smiles.data: "CC(C)c1c(C(=O)Nc2ccccc2)c(-c2ccccc2)c(-c2ccc(F)cc2)n1CC[C@@H](O)C[C@@H](O)CC(=O)O"
  label.class: 0
- smiles.data: "O=C(Nc1cccc([N+](=O)[O-])c1)c1cc2ccccc2cc1O"
  label.class: 1
- smiles.data: "CCCCCc1ccc(O)cc1"
  label.class: 0
- smiles.data: "CN(C)CCOC(c1ccccc1)c1ccccc1"
  label.class: 0
- smiles.data: "Brc1cc(Br)c(Oc2c(Br)cc(Br)c(Br)c2Br)cc1Br"
  label.class: 0

Please let me know the test result on file for "CCN(CC)CC" .
0

Just curious, what result did "FC(F)=C(F)C(F)(F)C(F)(F)C(F)(F)C(F)F" get here?
0

So what was the verdict on "N=C(N)c1ccc(OCCCCCOc2ccc(C(=N)N)cc2)cc1" in this test?
1

Can you look up the reported call for "O=S(=O)(O)c1ccc2cc(O)ccc2c1" for me?
0

How was "O=CC(F)(F)C(F)(F)C(F)(F)F" classified in this test?
0

Check the results log: what was the call for "c1cc[nH]c1" ?
0

Give the logged outcome of this assay for the following molecule: "Cc1cc(Cc2cc(C)cc(C(C)(C)C)c2O)c(O)c(C(C)(C)C)c1"
1

# fetch the recorded call for "CCCCCCCCCCCC" here
0

* * *

assay: CCTE_Padilla_ZF_Score.Any: CCTE's 144 Hour Post-fertilization zebrafish Assay Score for Any Mortality or Malformation, Padilla Lab (AID 2284416)
Activity calls are given as the source filed them. Rule for the calls: active = hit-call score of the fitted dose curve at least 0.9, where 1 is the maximum; inactive = score below 0.9.
measured.endpoint: AC50

- compound: "FC(OC(F)(F)C(F)(F)C(F)(F)F)C(F)(F)F (stereo unspecified)"
  result: "inactive"
- compound: "OCC(F)(F)C(F)(F)C(F)(F)C(F)(F)C(F)(F)C(F)(F)C(F)(F)C(F)(F)C(F)(F)C(F)(F)C(F)(F)F"
  result: "inactive"
- compound: "FC(F)=C(F)C(F)(F)C(F)(F)C(F)(F)C(F)F"
  result: "inactive"
- compound: "O=C(O)CCC(F)(F)C(F)(F)C(F)(F)C(F)(F)C(F)(F)F"
  result: "10 µM (active)"

Returns the measured AC50 for the input compound. Input: "CN(CCO)S(=O)(=O)C(F)(F)C(F)(F)C(F)(F)C(F)(F)C(F)(F)C(F)(F)C(F)(F)C(F)(F)F"
9.78 µM (active)

Bench note: what AC50 did "O=C(OC(=O)C(F)(F)C(F)(F)F)C(F)(F)C(F)(F)F" show?
inactive

* * *

experiment: CCTE_Padilla_ZF_144hpf_TERATOSCORE: (Legacy) CCTE's 144 Hour Post-fertilization zebrafish Assay Teratoscore, Padilla Lab (AID 2283679);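 note: zebrafish embryos with chorions exposed by immersion from 6-8 hpf to 5 dpf with daily renewal; teratogenicity score from eye scoring of death hatching and malformations at 144 hpf; higher score means more developmental defects relative to DMSO baseline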
Active and inactive are the calls of the source. Rule for the calls: active = hit-call score of the fitted dose curve at least 0.9, where 1 is the maximum; inactive = score below 0.9.
The reader will find reported AC50 values listed item by item below.

Solved cases below.
- smiles.data: "O=C(CCCN1CCC(O)(c2ccc(Cl)cc2)CC1)c1ccc(F)cc1"
  AC50: "0.664 µM (active)"
- smiles.data: "N=C(N)c1ccc(OCCCCCOc2ccc(C(=N)N)cc2)cc1"
  AC50: "41.4 µM (active)"
- smiles.data: "CS(=O)(=O)c1ccc([C@@H](CC2CCCC2)C(=O)Nc2cnccn2)cc1Cl"
  AC50: "58.6 µM (active)"
- smiles.data: "O=C(c1ccccc1)c1ccccc1"
  AC50: "15.1 µM (active)"

Returns the measured AC50 for the input compound. Input: "Cc1[nH]nc2c1N=C(c1ccccc1Cl)c1cc([N+](=O)[O-])ccc1N2"
1.32 µM (active)

* * *

target: Nuclear respiratory factor 1 (Homo sapiens); experiment: ATG_NRF1_CIS: Attagene CIS-FACTORIAL HepG2 Assay for human Nuclear Respiratory Factor 1 (NRF1) Orphan Gene (AID 2282987); conditions: HepG2 NRF1 cis-element reporter, Attagene multiplex; actives raise or lower the signal
Active and inactive are the calls of the source. The calls were made as follows: active = hit-call score of the fitted dose curve at least 0.9, where 1 is the maximum; inactive = score below 0.9.
Valid outcomes are listed here; reply with one: YES for active, NO for inactive

Dear all, I need the recorded test outcome for CCC(C)c1nccnc1OC (stereo unspecified) , thank you.
NO

What call does the record list for CCCCC(CC)C(=O)OCCOCCOCCOCCOC(=O)C(CC)CCCC (stereo unspecified) ?
NO

Please indicate how the test categorized "Nc1cc(Cl)c(-c2cc(Cl)c(N)cc2Cl)cc1Cl" .
NO

Assay result, entry "CC(C)(c1ccc(Oc2ccc(N)cc2)cc1)c1ccc(Oc2ccc(N)cc2)cc1" — outcome?
NO

Name the outcome recorded for "O=CC(F)(F)C(F)(F)C(F)(F)C(F)F" in the assay.
NO

Could you please tell me the result logged for "CCc1cccc(CC)c1N(COC)C(=O)CS(=O)(=O)O" in this assay?
NO

Would you mind telling me which call this test gave "Oc1cccc2c(O)cccc12" ?
NO

Just curious, what result did "O=C(OC(=O)C(F)(F)C(F)(F)F)C(F)(F)C(F)(F)F" get here?
NO

Status in this test for CCCCC(CC)C(=O)O (stereo unspecified) ?
NO

Test call, this compound: C=CC(C)(CCC=C(C)C)OC(C)=O (stereo unspecified)
NO

Assay result, entry "NCc1cccc(CN)c1" — outcome?
NO

Each compound tested received a call. Report the one for "O=S(=O)(O)c1ccccc1" .
NO

Check the results log: what was the call for "CCC(=O)C=Cc1ccc(OC)cc1" ?
NO

Lab log entry: CCCCCCCCCC=CCC1CC(=O)OC1=O (stereo unspecified) — outcome as called in the assay?
NO

Each compound tested received a call. Report the one for "CCCCc1ccc2ccccc2c1S(=O)(=O)O" .
NO
